The measurements presented in this section are drawn from paper PMC6363535.

Tested on: mAb 2G11G4
Assay: indirect competitive ELISA
Format: binding, mouse
Details: icELISA, mAb 2G11G4, coating antigen 9-O-succinyldihydroartemisinin-OVA
Assignment: determine reported IC50 for the given molecules.

Q: // fetch IC50; item: CCN(CC)CCCC(C)Nc1ccnc2cc(Cl)ccc12 (stereo not shown) ; system: mAb 2G11G4
Ans: >20 µg/mL

Q: Param request: IC50 | system mAb 2G11G4 | item C[C@H]1[C@@H](O)O[C@@H]2O[C@@]3(C)CC[C@H]4[C@H](C)CC[C@@H]1[C@@]24OO3 [Dihydroartemisinin]
Ans: 0.00116 µg/mL

Q: System mAb 2G11G4. Read-out IC50. Item `Clc1ccc2c(N3CCN(CCCN4CCN(c5ccnc6cc(Cl)ccc56)CC4)CC3)ccnc2c1` . Report value.
Ans: >20 µg/mL

Q: Using mAb 2G11G4 as the test system, report measured IC50 of CCCCN(CCCC)CC(O)c1cc(Cl)cc2c1-c1ccc(Cl)cc1/C2=C/c1ccc(Cl)cc1 (stereo not shown) .
Ans: >20 µg/mL
